TARGET ENTITY: Hfq WT (Escherichia coli, UniProt P0A6X3 1-102)
PROCEDURE DETAILS: fluorescence polarization
READOUT NAME: Kd (nM)
Give the value, in units of nM, as a plain number.

Memo: AACUAAA (ssRNA) [Ads (FAM)] , reported Kd: 1490

Cited source for all entries: paper PMC4344510
